Assay: luminescence decrease from intact luciferase reporter – cell-based, single concentration, SaOS-2, counter-screen for Mdm2/MdmX interaction inhibitor project, confirmation (AID 504607);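 also: p53-null SaOS-2 cells with luciferase driven by a doxycycline-inducible promoter; compound on cells about two nights before reading with doxycycline added after day one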
Details: SaOS-2 full-length luciferase counterscreen, at 8 µM, hits give high values
Among all 6,200 compounds or so, about 4,800 (77%) were called active. The set was probably picked from earlier hits. A selection follows.
Parameter: inhibition. Scope: all listed entries.
Respond numerically; units are % and should not be typed.

>  <COMPOUND>
NC(N)=Nc1nc(-c2ccccc2)c2cc(Cl)ccc2n1

>  <OUTCOME_MEASURE>
inhibition

>  <ASSAY_RESULT>
53.4

$$$$
>  <COMPOUND>
CCSc1nsc(NC(=O)Nc2cccc(C(C)=O)c2)n1

>  <OUTCOME_MEASURE>
inhibition

>  <ASSAY_RESULT>
41

$$$$
>  <COMPOUND>
CC(C)n1cnc2c(Nc3cccc(Cl)c3)nc(N(CCO)CCCO)nc21

>  <OUTCOME_MEASURE>
inhibition

>  <ASSAY_RESULT>
47.6

$$$$
>  <COMPOUND>
O=C(c1[nH]ncc1-c1ccc(Cl)cc1)C1CO1 (configuration not stated)

>  <OUTCOME_MEASURE>
inhibition

>  <ASSAY_RESULT>
45.8

$$$$
>  <COMPOUND>
O=C(Nc1ccncc1)c1c(F)cccc1F

>  <OUTCOME_MEASURE>
inhibition

>  <ASSAY_RESULT>
38.9

$$$$

// next item, inhibition requested
Data point: Cc1cc(C(=O)NC2CCCc3c2cnn3-c2cccc(C)c2C)c(C)o1 (configuration not stated) ; inhibition = 91
